tested-system: metabotropic glutamate receptor 5 (Rattus norvegicus, UniProt P31424)
Sequence (P31424 21-1203): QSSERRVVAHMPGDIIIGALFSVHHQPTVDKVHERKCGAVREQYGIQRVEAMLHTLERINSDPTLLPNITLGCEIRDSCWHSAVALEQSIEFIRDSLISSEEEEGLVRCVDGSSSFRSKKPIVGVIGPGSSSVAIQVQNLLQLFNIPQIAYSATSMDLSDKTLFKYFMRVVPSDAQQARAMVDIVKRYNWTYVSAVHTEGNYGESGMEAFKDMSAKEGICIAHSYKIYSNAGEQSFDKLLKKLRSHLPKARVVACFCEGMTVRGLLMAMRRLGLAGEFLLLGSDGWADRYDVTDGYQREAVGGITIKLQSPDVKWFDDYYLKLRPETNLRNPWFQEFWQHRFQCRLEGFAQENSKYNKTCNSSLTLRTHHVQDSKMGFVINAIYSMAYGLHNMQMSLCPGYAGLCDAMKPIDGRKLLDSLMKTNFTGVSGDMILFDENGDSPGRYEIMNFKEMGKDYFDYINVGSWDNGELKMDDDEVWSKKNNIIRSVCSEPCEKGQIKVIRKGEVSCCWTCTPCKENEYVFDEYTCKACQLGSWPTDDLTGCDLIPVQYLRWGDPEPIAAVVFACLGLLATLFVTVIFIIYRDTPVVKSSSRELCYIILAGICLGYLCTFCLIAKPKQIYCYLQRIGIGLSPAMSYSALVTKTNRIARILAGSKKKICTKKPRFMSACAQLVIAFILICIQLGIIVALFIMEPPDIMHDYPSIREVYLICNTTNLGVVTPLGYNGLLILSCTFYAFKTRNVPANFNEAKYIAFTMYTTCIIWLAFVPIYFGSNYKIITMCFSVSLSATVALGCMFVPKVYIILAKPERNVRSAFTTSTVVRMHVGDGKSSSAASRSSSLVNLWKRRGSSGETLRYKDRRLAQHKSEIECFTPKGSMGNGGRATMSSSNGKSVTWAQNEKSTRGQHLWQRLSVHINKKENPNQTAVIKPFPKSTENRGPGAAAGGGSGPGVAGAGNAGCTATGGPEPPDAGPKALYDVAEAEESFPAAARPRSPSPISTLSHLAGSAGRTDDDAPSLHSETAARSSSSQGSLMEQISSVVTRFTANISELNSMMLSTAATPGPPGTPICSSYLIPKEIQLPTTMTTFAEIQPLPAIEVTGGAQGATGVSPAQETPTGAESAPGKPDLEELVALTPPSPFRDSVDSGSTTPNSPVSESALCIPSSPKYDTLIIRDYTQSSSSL
procedure-details: FLIPR Calcium 3 fluorescence-based functional assay of intracellular calcium, mGluR5 antagonist activity
conditions: inhibition of glutamate (EC90, ~50 uM) stimulated calcium levels, mGluR5 HEK-293 cells; read-out: mGluR5 FLIPR MP Antagonist DR IC50
Excerpt: where [L]=concentration of free radioligand and Kd=dissociation constant of radioligand for the receptor. TITLE: Identification of metabotropic glutamate receptor 5 antagonists using a stable, sensitive fluorescence-based screening system PURPOSE: The aim of the research presented here was to develop a robust functional assay to measure changes in intracellular calcium, with the goal of identifying potent mGluR5 antagonists. […]
measurement-kind: pIC50
Interpret pIC50 as the negative base-10 log of the concentration measured in mol/L.

COc1ccc(C(=O)N2CCc3ccccc3C2c2ccccc2)cc1C#Cc1ccccn1 (stereo not drawn)
6.77
COc1ccc2c(c1)CCN(C(=O)c1ccc(OC)c(C#Cc3ccccn3)c1)C2
7.21
Cc1nc2c(s1)CN(C(=O)c1ccc(C)c(C#Cc3ccccn3)c1)CC2
8.40

Sure, the documented pIC50 for O=C(c1ccc(Cl)c(C#Cc2ccccn2)c1)N1Cc2cccnc2C1 is 7.74

Sure, the documented pIC50 for COc1ccc(C(=O)N2Cc3cnc(C)c(OC)c3C2)cc1C#Cc1ccccn1 is 7.46

Sure, the documented pIC50 for O=C(c1ccc(Cl)c(C#Cc2ccccn2)c1)N1CCc2[nH]cnc2C1 is 7.57

Sure, the documented pIC50 for COc1ccc(C(=O)N2Cc3cnc(C)cc3C2)cc1C#Cc1ccccn1 is 7.92

Sure, the documented pIC50 for Cc1ccc(C(=O)N2CCc3ccc(Cl)cc3C2)cc1C#Cc1ccccn1 is 7.52

Sure, the documented pIC50 for COc1ccc(C(=O)N2CCCc3ccccc3C2)cc1C#Cc1ccccn1 is 7.54
